Tested on: Chick chorioallantoic membrane (CAM) capillary formation driven by VPF/VEGF165
method_notes: Chick chorioallantoic membrane (CAM) mesh assay
Type: in vivo, chicken
condition_set: significant if >25%
Protocol: Fertilized white leghorn chicken eggs (SPAFAS Inc., Norwich, Conn.) were received at day 0 and incubated for 3 days at 37 C with constant humidity. […] After fixation, meshes were mounted on slides with 90% glycerol in PBS and visualized on an inverted fluorescence microscope. […] The areas of high intensity were highlighted and measured. Results are expressed as ability to suppress capillary formation after subtraction from negative control. […]
measured_endpoint: % of inhibition at 33 μg/mesh in the presence of VEGF (%)
I only need the number, in %, no unit after it.

Some solved cases for reference:
1) Cl.N=C(N)NCCNC(=O)c1ccc(C(=O)NC[C@H](NS(=O)(=O)c2ccccc2)C(=O)O)o1: 32
2) N=C(N)NNC(=O)c1ccc(C(=O)NC[C@H](NS(=O)(=O)c2ccccc2)C(=O)O)s1.O=C(O)C(F)(F)F: 8
3) NNC(=O)c1ccc(C(=O)NC[C@H](NS(=O)(=O)c2ccccc2)C(=O)O)s1.O=C(O)C(F)(F)F: 20
4) NCCCNC(=O)c1ccc(C(=O)NC(CC(=O)O)c2ccccc2)s1.O=C(O)C(F)(F)F (stereo not drawn): 34
5) N=C(N)NCCCNC(=O)c1ccc(C(=O)NC(CC(=O)O)c2ccccc2)s1 (stereo not drawn): 36

If you can, please state the reported % of inhibition at 33 μg/mesh in the presence of VEGF value of N=C(N)NCCNC(=O)c1ccc(C(=O)NCC(Nc2ncccn2)C(=O)O)s1.O=C(O)C(F)(F)F.O=C(O)C(F)(F)F (stereo not drawn) .
31

----------
measured_target: αvβ3 (Homo sapiens, UniProt P05106+P06756)
Construct: expressed in transfected cells; host or cells: K562
Sequence (P05106 27-788, one chain of several): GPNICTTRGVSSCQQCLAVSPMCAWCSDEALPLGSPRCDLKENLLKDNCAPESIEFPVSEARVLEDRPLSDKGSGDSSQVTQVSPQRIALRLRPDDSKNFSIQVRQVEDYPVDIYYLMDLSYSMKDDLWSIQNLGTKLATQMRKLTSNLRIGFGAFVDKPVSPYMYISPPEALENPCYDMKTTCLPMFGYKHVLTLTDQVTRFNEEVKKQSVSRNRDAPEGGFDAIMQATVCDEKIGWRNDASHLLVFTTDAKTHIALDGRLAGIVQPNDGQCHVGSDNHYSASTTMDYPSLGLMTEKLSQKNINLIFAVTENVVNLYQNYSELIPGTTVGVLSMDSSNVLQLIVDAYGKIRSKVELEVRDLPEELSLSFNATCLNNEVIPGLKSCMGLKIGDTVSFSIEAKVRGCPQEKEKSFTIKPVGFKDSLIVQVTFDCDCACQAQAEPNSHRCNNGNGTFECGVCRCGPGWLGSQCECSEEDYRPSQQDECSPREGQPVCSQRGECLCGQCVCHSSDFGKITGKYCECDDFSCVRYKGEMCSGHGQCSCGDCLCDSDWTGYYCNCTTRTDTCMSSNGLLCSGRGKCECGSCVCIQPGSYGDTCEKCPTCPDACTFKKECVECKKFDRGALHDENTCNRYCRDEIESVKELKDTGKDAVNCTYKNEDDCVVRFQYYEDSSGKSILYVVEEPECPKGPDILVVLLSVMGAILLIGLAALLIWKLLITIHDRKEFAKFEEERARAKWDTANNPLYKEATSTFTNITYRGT
method_notes: Cell adhesion assay, K562-tr on osteopontin
Format: cell-based
measured_endpoint: IC50

1. Cl.N=C(N)NCCNC(=O)c1ccc(C(=O)NC[C@H](NS(=O)(=O)c2ccccc2)C(=O)O)o1 [Compound XXI, hydrochloride]: 2.3 µM

If you can, please state the reported IC50 value of N=C(N)NCCNC(=O)c1ccc(C(=O)NCC(Nc2ncccn2)C(=O)O)s1.O=C(O)C(F)(F)F.O=C(O)C(F)(F)F (stereo not drawn) [Compound XXX, bis trifluoroacetic acid salt] .
3.4 µM

Can you check NCCCNC(=O)c1ccc(C(=O)NC(CC(=O)O)c2ccccc2)s1.O=C(O)C(F)(F)F (stereo not drawn) [Compound VII, trifluoroacetic acid salt] next?
> 10 µM

----------
measured_target: αvβ5 (Homo sapiens, UniProt P06756+P18084)
Construct: Cells HT29, K562, or K562 transfected with αvβ3; endogenous in cells; host or cells: HT29
Sequence (P06756 31-889 limits assumed): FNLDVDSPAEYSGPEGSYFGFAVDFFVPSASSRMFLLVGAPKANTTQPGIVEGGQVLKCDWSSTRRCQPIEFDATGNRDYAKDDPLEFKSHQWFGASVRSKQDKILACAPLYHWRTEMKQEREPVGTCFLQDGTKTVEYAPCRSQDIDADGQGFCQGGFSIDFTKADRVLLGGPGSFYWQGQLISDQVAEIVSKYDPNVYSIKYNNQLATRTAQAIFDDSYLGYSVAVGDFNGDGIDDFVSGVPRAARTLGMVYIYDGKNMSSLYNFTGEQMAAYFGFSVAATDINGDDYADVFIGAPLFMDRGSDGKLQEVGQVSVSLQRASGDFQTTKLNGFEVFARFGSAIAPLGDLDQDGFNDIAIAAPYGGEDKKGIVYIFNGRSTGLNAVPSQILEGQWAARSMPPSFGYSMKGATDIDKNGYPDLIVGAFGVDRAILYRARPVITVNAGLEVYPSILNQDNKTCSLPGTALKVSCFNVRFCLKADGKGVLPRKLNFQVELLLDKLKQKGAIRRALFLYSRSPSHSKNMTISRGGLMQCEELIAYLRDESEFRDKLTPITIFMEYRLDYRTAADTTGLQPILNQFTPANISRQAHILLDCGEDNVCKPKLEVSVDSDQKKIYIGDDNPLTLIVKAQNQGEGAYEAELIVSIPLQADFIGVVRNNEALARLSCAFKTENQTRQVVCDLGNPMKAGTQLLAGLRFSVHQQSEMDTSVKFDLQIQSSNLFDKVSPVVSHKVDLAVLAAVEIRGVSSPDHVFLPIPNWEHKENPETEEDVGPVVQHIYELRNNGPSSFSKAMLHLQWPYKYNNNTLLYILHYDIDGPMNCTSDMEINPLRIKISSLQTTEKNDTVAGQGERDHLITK
Sequence (P06756 891-1048 partner limits assumed): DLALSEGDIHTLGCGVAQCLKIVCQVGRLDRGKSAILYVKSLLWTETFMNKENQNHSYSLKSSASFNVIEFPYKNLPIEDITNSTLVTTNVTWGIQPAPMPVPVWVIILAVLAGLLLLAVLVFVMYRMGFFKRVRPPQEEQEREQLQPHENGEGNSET
Sequence (P18084 24-799): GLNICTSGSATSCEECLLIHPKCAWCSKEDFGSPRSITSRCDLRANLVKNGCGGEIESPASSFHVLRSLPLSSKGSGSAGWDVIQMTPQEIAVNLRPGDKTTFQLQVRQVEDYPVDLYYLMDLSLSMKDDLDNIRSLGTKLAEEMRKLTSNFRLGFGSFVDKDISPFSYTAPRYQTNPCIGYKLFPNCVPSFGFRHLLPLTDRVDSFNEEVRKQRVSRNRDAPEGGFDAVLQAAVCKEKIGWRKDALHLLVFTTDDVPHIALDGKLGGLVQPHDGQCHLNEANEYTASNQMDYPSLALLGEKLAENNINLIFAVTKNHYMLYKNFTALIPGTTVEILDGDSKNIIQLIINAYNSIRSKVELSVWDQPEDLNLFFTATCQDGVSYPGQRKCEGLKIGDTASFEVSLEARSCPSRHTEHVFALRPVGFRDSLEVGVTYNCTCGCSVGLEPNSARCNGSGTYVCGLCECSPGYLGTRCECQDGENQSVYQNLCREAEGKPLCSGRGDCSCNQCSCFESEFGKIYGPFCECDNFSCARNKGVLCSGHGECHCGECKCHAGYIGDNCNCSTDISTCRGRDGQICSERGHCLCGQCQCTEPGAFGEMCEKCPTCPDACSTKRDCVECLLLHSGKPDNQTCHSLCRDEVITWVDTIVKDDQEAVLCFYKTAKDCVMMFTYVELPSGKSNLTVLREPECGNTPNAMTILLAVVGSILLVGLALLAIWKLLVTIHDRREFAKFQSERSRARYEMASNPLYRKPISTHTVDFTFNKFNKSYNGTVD
method_notes: Cell adhesion assay, HT29 on vitronectin
Format: cell-based
condition_set: HT29 cells, adhesion to vitronectin, 1 hour; read-out: IC50 HT29 Vitronectin (αvβ5)
Where a name gives a salt, the structure may show the parent alone.
measured_endpoint: IC50

If you can, please state the reported IC50 value of NCCNC(=O)c1ccc(C(=O)NC[C@H](NS(=O)(=O)c2ccccc2)C(=O)O)s1 [Compound X, trifluoroacetic acid salt] .
> 10 µM

----------
measured_target: αvβ5 (Homo sapiens, UniProt P06756+P18084)
Construct: Cells HT29, K562, or K562 transfected with αvβ3; endogenous in cells; host or cells: HT29
method_notes: Cell adhesion assay, HT29 on vitronectin
Format: cell-based
pIC50: −log10 of the molar value.
measured_endpoint: pIC50

If you can, please state the reported pIC50 value of N=C(N)NCCNC(=O)c1ccc(C(=O)NCC(Nc2ncccn2)C(=O)O)s1.O=C(O)C(F)(F)F.O=C(O)C(F)(F)F (stereo not drawn) [Compound XXX, bis trifluoroacetic acid salt] .
< 5.00

Can you check NCCCNC(=O)c1ccc(C(=O)NC(CC(=O)O)c2ccccc2)s1.O=C(O)C(F)(F)F (stereo not drawn) [Compound VII, trifluoroacetic acid salt] next?
< 5.00

Can you check Cl.N=C(N)NCCNC(=O)c1ccc(C(=O)NC[C@H](NS(=O)(=O)c2ccccc2)C(=O)O)o1 [Compound XXI, hydrochloride] next?
5.27
